# Tested on: S. aureus (ATCC 25923)
# test.summary: microbe, parasite or virus in culture
# Type: cell-based, Staphylococcus aureus
measured.endpoint: Zone (MSSA) (mm)
Numbers only, in mm.

>  <compound>
CSN1C(=O)OCC1c1ccccc1 (stereo not shown) [Compound 13, reference compound]

>  <Zone (MSSA) (mm)>
29

$$$$

Items follow; give Zone (MSSA) for each.
1. CN[C@H](CC(C)C)C(=O)N[C@H]1C(=O)N[C@@H](CC(N)=O)C(=O)N[C@H]2C(=O)N[C@H]3C(=O)N[C@H](C(=O)N[C@H](C(=O)O)c4cc(O)cc(O)c4-c4cc3ccc4O)[C@H](O)c3ccc(c(Cl)c3)Oc3cc2cc(c3O[C@@H]2O[C@H](CO)[C@@H](O)[C@H](O)[C@H]2O[C@H]2C[C@](C)(N)[C@H](O)[C@H](C)O2)Oc2ccc(cc2Cl)[C@H]1O [Vanc., Vancomycin, reference compound]
2. CC(C)SSc1ccc([N+](=O)[O-])cc1 [Compound 38c, Isopropyl p-nitrophenyl disulfide]

Response given:
27
47

Challenge: Returns the measured Zone (MSSA) for the input compound. Input: CCC(C)SSc1ccc([N+](=O)[O-])cc1 (stereo not shown) [Compound 38d, Sec-Butyl p-nitrophenyl Disulfide]
Response given: 67

###

# Test system: E. coli (K12; ATCC 23590)
# test.summary: Kirby-Bauer zones of inhibition, E. coli
# Assay type: cell-based, Escherichia coli
# condition.label: K12 strain, ATCC 23590; number in parentheses
Please provide measured Zone of Inhibition (mm), E. coli, zones of partial inhibition for the entries that follow.
Give bare numbers, in mm.

Worked cases, Zone of Inhibition (mm), E. coli, zones of partial inhibition given:
>  <compound>
CCCCSSc1ccc([N+](=O)[O-])cc1 [Compound 38f, n-Butyl p-nitrophenyl Disulfide]

>  <system>
E. coli (K12; ATCC 23590)

>  <result.number>
22

$$$$
>  <compound>
CCCSSc1ccc([N+](=O)[O-])cc1 [Compound 38e, p-Nitrophenyl n-propyl Disulfide]

>  <system>
E. coli (K12; ATCC 23590)

>  <result.number>
21

$$$$
>  <compound>
CCSSc1ccc([N+](=O)[O-])cc1 [Compound 38b, Ethyl p-nitrophenyl Disulfide]

>  <system>
E. coli (K12; ATCC 23590)

>  <result.number>
23

$$$$

Challenge: Return Zone of Inhibition (mm), E. coli, zones of partial inhibition measured with E. coli (K12; ATCC 23590) given this compound: CSSc1ccc([N+](=O)[O-])cc1 [Compound 38a, p-Nitrophenyl Methyl Disulfide]
Response given: 24

###

# System: E. coli (K12; ATCC 23590)
# test.summary: Kirby-Bauer zones of inhibition, E. coli
# Format: cell-based, Escherichia coli
# condition.label: K12 strain, ATCC 23590; number outside parentheses
measured.endpoint: Zone of Inhibition (mm), E. coli
Answers are plain numbers, in mm.

Worked cases, Zone of Inhibition (mm), E. coli given:
>  <molecule>
CCCCSSc1ccc([N+](=O)[O-])cc1 [Compound 38f, n-Butyl p-nitrophenyl Disulfide]

>  <Zone of Inhibition (mm), E. coli>
15

$$$$
>  <molecule>
CSSc1ccc([N+](=O)[O-])cc1 [Compound 38a, p-Nitrophenyl Methyl Disulfide]

>  <Zone of Inhibition (mm), E. coli>
17

$$$$
>  <molecule>
CCSSc1ccc([N+](=O)[O-])cc1 [Compound 38b, Ethyl p-nitrophenyl Disulfide]

>  <Zone of Inhibition (mm), E. coli>
15

$$$$

Challenge: Returns the measured Zone of Inhibition (mm), E. coli for the input molecule. Input: CCCSSc1ccc([N+](=O)[O-])cc1 [Compound 38e, p-Nitrophenyl n-propyl Disulfide]
Response given: 16

# credit: patent US8722937B2
